Target: CYP2C9 (Homo sapiens (Human))
Sequence (P11712 whole entry): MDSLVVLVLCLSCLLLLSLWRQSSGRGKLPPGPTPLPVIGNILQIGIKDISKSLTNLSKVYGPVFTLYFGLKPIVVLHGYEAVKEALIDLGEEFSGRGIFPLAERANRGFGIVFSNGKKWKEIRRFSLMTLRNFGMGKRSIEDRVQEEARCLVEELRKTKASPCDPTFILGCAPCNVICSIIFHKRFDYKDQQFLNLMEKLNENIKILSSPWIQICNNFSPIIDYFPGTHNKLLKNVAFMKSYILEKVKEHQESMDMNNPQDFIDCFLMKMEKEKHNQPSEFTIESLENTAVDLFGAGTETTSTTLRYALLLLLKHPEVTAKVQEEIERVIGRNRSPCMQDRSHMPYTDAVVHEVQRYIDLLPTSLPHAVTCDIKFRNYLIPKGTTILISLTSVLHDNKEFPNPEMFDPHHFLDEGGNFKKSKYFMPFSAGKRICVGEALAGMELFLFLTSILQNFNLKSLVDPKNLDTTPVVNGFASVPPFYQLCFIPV
Experiment: CYP Inhibition Assay, CYP2C9;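 also: probe substrate held close to its Km, with metabolite formation quantified by LC-MS/MS against a calibration curve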
Assay type: in vitro ADME
Conditions: human liver microsomes, 30 min pre-incubation with NADPH; read-out: CYP 2C9 IC50 pre
Quantity: IC50

Solved cases below.
CCOc1nc(N2C[C@H]3C(=O)N(C)C(N)=N[C@@]3(c3ccccc3)C2)nc(C)c1F (racemic) [4 racemic] = > 30 µM
COc1nc(N2C[C@H]3C(=O)N(C)C(=N)N[C@@]3(c3cc(F)ccc3Cl)C2)nc(C)c1F [Example 2] = > 20 µM
Cc1nc(N2C[C@H]3C(=O)N(C)C(=N)N[C@@]3(c3cc(F)ccc3F)C2)nc(C2CC2)c1F [Example 37] = > 20 µM
CCc1nc(N2C[C@H]3C(=O)N(C)C(=N)N[C@@]3(c3ccc(F)cc3F)C2)nc(OC)c1F [Example 32] = > 20 µM
COc1nc(N2C[C@H]3C(=O)N(C)C(=N)N[C@@]3(c3ccc(F)cc3F)C2)nc(OC)c1F [Example 10] = > 30 µM

Now examine the next entry.
[in] State recorded IC50 with CYP2C9 (Homo sapiens (Human)), entry COc1nc(N2C[C@H]3C(=O)N(C)C(=N)N[C@@]3(c3ccc(F)cc3F)C2)nc(CO)c1F [Example 43] , no comment.
[out] > 20 µM
